Parameter: abundance fitness. Scope: all listed entries.
B1: Transcription elongation factor A N-terminal and central domain-containing protein, residues 30 to 77; numbered along this chain, Q8N8B7 (parent)
chain: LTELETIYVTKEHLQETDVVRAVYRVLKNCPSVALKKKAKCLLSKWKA

variants of: B1; assay: abundance fitness (aPCA) (normalised: wild type 0, dead -1); higher = more abundant; growth selection in yeast, the domain comes from the species named; details: Homo sapiens
metric: abundance fitness

{"biopolymer_sequence": "LTELETINVTKEHLQETDVVRAVYRVLKNCPSVALKKKAKCLLSKWKA [Y8N]", "numeric_readout": -0.043}
{"biopolymer_sequence": "LTEPETIYVTKEHLQETDVVRAVYRVLKNCPSVALKKKAKCLLSKWKA [L4P]", "numeric_readout": 0.279}
{"biopolymer_sequence": "LTELETIYVTKEHLQETDVVRAVYRVLKNCSSVALKKKAKCLLSKWKA [P31S]", "numeric_readout": 0.263}
{"biopolymer_sequence": "LTELETIYVTKEHLQETMVVRAVYRVLKNCPSVALKKKAKCLLSKWKA [D18M]", "numeric_readout": 0.384}
{"biopolymer_sequence": "LTELETIYVTKEHLQETDVVRAVYRVLKNCPSVALKCKAKCLLSKWKA [K37C]", "numeric_readout": -0.895}
{"biopolymer_sequence": "LTELETIYVTKWHLQETDVVRAVYRVLKNCPSVALKKKAKCLLSKWKA [E12W]", "numeric_readout": -0.71}
{"biopolymer_sequence": "LTEEETIYVTKEHLQETDVVRAVYRVLKNCPSVALKKKAKCLLSKWKA [L4E]", "numeric_readout": 0.173}
{"biopolymer_sequence": "LTELETIYVTKEHLQETDVVRAVYRVLKNCPSVALKKKAKCLLVKWKA [S44V]", "numeric_readout": -0.48}
{"biopolymer_sequence": "LTELETIYVTKEHLQETDEVRAVYRVLKNCPSVALKKKAKCLLSKWKA [V19E]", "numeric_readout": -0.618}
{"biopolymer_sequence": "LTELETIYVTKEHLTETDVVRAVYRVLKNCPSVALKKKAKCLLSKWKA [Q15T]", "numeric_readout": -0.213}
{"biopolymer_sequence": "LTELETIYVTKEGLQETDVVRAVYRVLKNCPSVALKKKAKCLLSKWKA [H13G]", "numeric_readout": -0.232}
{"biopolymer_sequence": "LTELETIYVTKEHLQETDVVRAEYRVLKNCPSVALKKKAKCLLSKWKA [V23E]", "numeric_readout": -0.584}
{"biopolymer_sequence": "LTELETIYVTKEHLQETDVVRAVYRVLKNCPSVALKKKAKCLLIKWKA [S44I]", "numeric_readout": -0.695}
{"biopolymer_sequence": "LTELETIYVTKEHLQETDVVRAVYRVLKNCPSVQLKKKAKCLLSKWKA [A34Q]", "numeric_readout": -0.464}
{"biopolymer_sequence": "LTELETIYVTKEHLQETDVVRAKYRVLKNCPSVALKKKAKCLLSKWKA [V23K]", "numeric_readout": -0.573}
{"biopolymer_sequence": "LTELETIYVTKEHLQETDVVRAVYRVLKNCPSVKLKKKAKCLLSKWKA [A34K]", "numeric_readout": 0.148}
{"biopolymer_sequence": "LTELETIYVTKEHLQETDAVRAVYRVLKNCPSVALKKKAKCLLSKWKA [V19A]", "numeric_readout": -0.022}
{"biopolymer_sequence": "LTELETIYVTKEHLQETDVVRYVYRVLKNCPSVALKKKAKCLLSKWKA [A22Y]", "numeric_readout": -0.074}
{"biopolymer_sequence": "LTELETIYVTKEHLQETDVDRAVYRVLKNCPSVALKKKAKCLLSKWKA [V20D]", "numeric_readout": -0.215}
{"biopolymer_sequence": "LTELETIYVTKEHLQETDVVRAVYRVLKGCPSVALKKKAKCLLSKWKA [N29G]", "numeric_readout": -0.282}
{"biopolymer_sequence": "LTELETIYVTKEHLQETDHVRAVYRVLKNCPSVALKKKAKCLLSKWKA [V19H]", "numeric_readout": -0.454}
{"biopolymer_sequence": "LTELETIYVTKEHLQETDVVRAVYRVLKNCPSVALKKKIKCLLSKWKA [A39I]", "numeric_readout": 0.2}

Reference for the values: the Human Domainome abundance scans (Beltran et al. 2025)
